Origin of the recorded values: patent US20200024330A1

target: Env of the clade D HIV-1 pseudoviruses of the cross-clade 162-pseudovirus panel (n = 25); test: cell-based or functional assay
Property: Median IC50 against viruses neutralized with an IC50 <50 µg/ml (mg/L)

Binder	Unit of measurement	Experimental result
PGT-128 (antibody, V domains shown) VH: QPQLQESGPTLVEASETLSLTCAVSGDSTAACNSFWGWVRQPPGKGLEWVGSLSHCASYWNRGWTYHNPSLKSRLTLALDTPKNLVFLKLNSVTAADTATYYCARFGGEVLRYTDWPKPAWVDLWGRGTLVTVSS VL: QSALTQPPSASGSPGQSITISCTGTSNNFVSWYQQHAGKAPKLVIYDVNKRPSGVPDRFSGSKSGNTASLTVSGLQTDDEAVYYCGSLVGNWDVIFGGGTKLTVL	mg/L	0.02
PGT-123 (antibody, V domains shown) VH: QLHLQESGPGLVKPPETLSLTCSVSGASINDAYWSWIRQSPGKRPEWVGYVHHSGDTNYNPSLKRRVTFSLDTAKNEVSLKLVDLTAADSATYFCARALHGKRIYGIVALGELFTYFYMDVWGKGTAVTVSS VL: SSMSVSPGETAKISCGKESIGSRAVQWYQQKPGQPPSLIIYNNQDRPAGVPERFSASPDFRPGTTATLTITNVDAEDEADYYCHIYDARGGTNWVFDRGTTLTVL	mg/L	0.02
PGT-136 (antibody, V domains shown) VH: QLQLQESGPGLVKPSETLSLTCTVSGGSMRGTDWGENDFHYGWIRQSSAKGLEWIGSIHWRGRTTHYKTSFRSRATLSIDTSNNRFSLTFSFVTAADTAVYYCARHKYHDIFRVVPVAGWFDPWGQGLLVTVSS VL: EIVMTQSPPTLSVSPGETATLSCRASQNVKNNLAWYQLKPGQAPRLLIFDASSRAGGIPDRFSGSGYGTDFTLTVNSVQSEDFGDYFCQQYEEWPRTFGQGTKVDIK	mg/L	0.05
PGT-125 (antibody, V domains shown) VH: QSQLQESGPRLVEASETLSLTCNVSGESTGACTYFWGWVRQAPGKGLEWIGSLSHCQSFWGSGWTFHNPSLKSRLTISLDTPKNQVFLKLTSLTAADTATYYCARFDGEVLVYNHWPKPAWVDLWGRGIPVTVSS VL: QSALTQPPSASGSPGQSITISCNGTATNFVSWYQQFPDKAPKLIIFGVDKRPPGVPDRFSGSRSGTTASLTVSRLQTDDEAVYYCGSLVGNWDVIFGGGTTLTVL	mg/L	0.09
PGT-137 (antibody, V domains shown) VH: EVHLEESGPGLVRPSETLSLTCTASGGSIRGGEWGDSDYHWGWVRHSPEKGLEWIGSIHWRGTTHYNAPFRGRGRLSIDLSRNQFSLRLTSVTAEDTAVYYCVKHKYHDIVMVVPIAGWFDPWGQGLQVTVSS VL: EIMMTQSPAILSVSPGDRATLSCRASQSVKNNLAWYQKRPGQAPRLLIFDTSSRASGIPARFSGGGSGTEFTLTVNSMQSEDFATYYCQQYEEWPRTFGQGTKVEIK	mg/L	6.3
